observationType: melting point

For reference, reported melting point for CN1CCN(c2ccc(-c3cnc4c(c3)N(C(=O)Cc3cc(F)ccc3F)CCN4)cn2)CC1 [Example 113] stands at > 300 °C

For reference, reported melting point for O=C(c1ccccc1)N1CCNc2ncc(I)cc21 [Example 42] stands at 164 to 166 °C

For reference, reported melting point for O=C(O)c1cnc2c(c1)N(Cc1cc(F)ccc1F)CCN2 [Example 78] stands at 231 °C (dec.)

###

targetSystem: NPM-ALK (Homo sapiens)
Construct: a fusion protein consisting of nucleophosmin (NMP) and the intracellular domain of ALK; the other entry of the earlier key: NPM1 (P06748, Nucleophosmin)
Sequence (Q9UM73 with tags, fused parts or gaps): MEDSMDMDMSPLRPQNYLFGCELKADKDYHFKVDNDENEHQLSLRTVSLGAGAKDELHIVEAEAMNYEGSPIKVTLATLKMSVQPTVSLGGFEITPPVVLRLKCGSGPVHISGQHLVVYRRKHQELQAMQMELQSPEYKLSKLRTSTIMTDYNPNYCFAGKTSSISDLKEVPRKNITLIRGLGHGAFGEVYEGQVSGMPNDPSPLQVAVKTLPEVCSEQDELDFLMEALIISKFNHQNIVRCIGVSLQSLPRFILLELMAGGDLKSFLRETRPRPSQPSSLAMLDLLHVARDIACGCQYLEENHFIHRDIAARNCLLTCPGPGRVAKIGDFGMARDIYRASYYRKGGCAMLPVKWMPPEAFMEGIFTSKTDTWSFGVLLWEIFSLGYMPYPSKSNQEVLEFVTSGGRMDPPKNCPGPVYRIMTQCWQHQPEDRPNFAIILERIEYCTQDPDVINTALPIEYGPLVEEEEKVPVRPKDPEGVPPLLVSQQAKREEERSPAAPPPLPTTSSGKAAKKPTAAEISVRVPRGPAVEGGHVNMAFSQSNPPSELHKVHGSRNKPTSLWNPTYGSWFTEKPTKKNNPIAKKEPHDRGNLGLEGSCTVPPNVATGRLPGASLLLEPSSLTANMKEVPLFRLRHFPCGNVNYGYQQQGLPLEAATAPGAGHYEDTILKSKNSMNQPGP
testDescription: ALK Cellular Assay (phospho-NPM-ALK immunoblot / ALK tyrosine phosphorylation ELISA)
Where a name gives a salt, the structure may show the parent alone.
For each record, write down the corresponding IC50.

For reference, reported IC50 for O=C(c1ccc(-c2cnc3c(c2)N(Cc2c(F)ccc(F)c2Cl)CCN3)cc1)N1CCC(N2CCCC2)CC1 stands at ≤ 250 nM

For reference, reported IC50 for O=C(c1ccc(-c2cnc3c(c2)N(Cc2ccccc2)CCN3)cc1)N1CCC[C@H]1CN1CCCC1 [Example 38, trifluoroacetic acid salt] stands at 501 to 750 nM

For reference, reported IC50 for CN(C)CCCCNC(=O)c1cnc2c(c1)N(Cc1cc(Cl)ccc1C(F)(F)F)CCN2 stands at 251 to 500 nM

For reference, reported IC50 for O=C(c1ccc(-c2cnc3c(c2)N(Cc2cc(Cl)ccc2Cl)C(=O)CN3)cc1)N1CCC(N2CCCC2)CC1 stands at 251 to 500 nM

For reference, reported IC50 for CN1CCN(c2cc(-c3cnc4c(c3)N(Cc3c(F)ccc(F)c3Cl)CCN4)ccn2)CC1 stands at 501 to 750 nM

For reference, reported IC50 for COC1CCN(C(=O)c2ccc(-c3cnc4c(c3)N(Cc3cc(Cl)ccc3C(F)(F)F)CCN4)cc2)CC1 stands at 251 to 500 nM

For reference, reported IC50 for O=C1CNc2ncc(-c3ccc(C(=O)N4CCC[C@H]4CN4CCCC4)cc3)cc2N1Cc1cc(Cl)ccc1Cl stands at 251 to 500 nM

###

pIC50: −log10 of the molar value. Where a name gives a salt, the structure may show the parent alone.
observationType: pIC50

Bench note, c-Met (cytoplasmic domain) (Homo sapiens, UniProt P08581): Fc1ccc(F)c(CN2CCNc3ncc(-c4ccnc(N5CCOCC5)c4F)cc32)c1Cl , pIC50 reads 5.00 to 6.00

Bench note, c-Met (cytoplasmic domain) (Homo sapiens, UniProt P08581): O=S(=O)(CCN1CCCC1)Nc1ccc(-c2cnc3c(c2)N(Cc2cc(F)ccc2F)CCN3)cc1 , pIC50 reads 4.00 to 5.00

Bench note, c-Met (cytoplasmic domain) (Homo sapiens, UniProt P08581): O=C(O)c1ccc(-c2cnc3c(c2)N(Cc2ccccc2)C(=O)CN3)cc1 , pIC50 reads < 4.00

Bench note, c-Met (cytoplasmic domain) (Homo sapiens, UniProt P08581): O=C(c1cnc2c(c1)N(Cc1cc(Cl)ccc1Cl)CCN2)N1CCN(c2nccc3occc23)CC1 , pIC50 reads 5.00 to 6.00

Bench note, c-Met (cytoplasmic domain) (Homo sapiens, UniProt P08581): N#Cc1c(F)ccc(F)c1CN1CCNc2ncc(-c3ccc(N4CCOCC4)nc3)cc21 , pIC50 reads 6.00 to 7.00

Bench note, c-Met (cytoplasmic domain) (Homo sapiens, UniProt P08581): O=C(c1ccc(-c2cnc3c(c2)N(Cc2cc(F)ccc2F)CCN3)cc1)N1CCC(N2CCCC2)CC1 , pIC50 reads 5.00 to 6.00

Bench note, c-Met (cytoplasmic domain) (Homo sapiens, UniProt P08581): Cc1cc(N2CCN(C(=O)c3cnc4c(c3)N(Cc3cc(Cl)ccc3Cl)CCN4)CC2)c2ccccc2n1 , pIC50 reads 5.00 to 6.00

Bench note, c-Met (cytoplasmic domain) (Homo sapiens, UniProt P08581): CCOC(=O)c1ccc(-c2cnc3c(c2)N(Cc2cc(Cl)ccc2C(F)(F)F)CCN3)cc1 , pIC50 reads < 4.00

Bench note, c-Met (cytoplasmic domain) (Homo sapiens, UniProt P08581): CCOC(=O)c1ccc(-c2cnc3c(c2)NC(=O)CN3)cc1 , pIC50 reads < 4.00

Bench note, c-Met (cytoplasmic domain) (Homo sapiens, UniProt P08581): O=C(c1ccccc1)N1CCNc2ncc(I)cc21 , pIC50 reads < 4.00

Bench note, c-Met (cytoplasmic domain) (Homo sapiens, UniProt P08581): FC(F)(F)c1ccc(CN2CCNc3ncc(I)cc32)o1 , pIC50 reads < 4.00

Bench note, c-Met (cytoplasmic domain) (Homo sapiens, UniProt P08581): O=C(c1cnc2c(c1)N(Cc1cc(Cl)ccc1Cl)CCN2)N1CCN(C(=O)C2CCCO2)CC1 (stereo not drawn) , pIC50 reads < 4.00

Bench note, c-Met (cytoplasmic domain) (Homo sapiens, UniProt P08581): CN(C)CC#Cc1cnc2c(c1)N(Cc1cc(Cl)ccc1Cl)CCN2 , pIC50 reads 5.00 to 6.00

Bench note, c-Met (cytoplasmic domain) (Homo sapiens, UniProt P08581): O=C(O)c1ccc(-c2cnc3c(c2)N(Cc2cc(F)ccc2F)CCN3)cc1 , pIC50 reads 4.00 to 5.00

Bench note, c-Met (cytoplasmic domain) (Homo sapiens, UniProt P08581): O=C1CNc2ncc(-c3ccc(NS(=O)(=O)CCN4CCCC4)cc3)cc2N1Cc1ccccc1 [Example 45, trifluoroacetic acid salt] , pIC50 reads < 4.00

Bench note, c-Met (cytoplasmic domain) (Homo sapiens, UniProt P08581): CCOC(=O)c1ccc(-c2cnc3c(c2)N(Cc2ccccc2OC(F)(F)F)CCN3)cc1 , pIC50 reads < 4.00

Bench note, c-Met (cytoplasmic domain) (Homo sapiens, UniProt P08581): CN1CCN(c2ccc(-c3cnc4c(c3)N(S(=O)(=O)c3ccccc3Cl)CCN4)cn2)CC1 , pIC50 reads 5.00 to 6.00

Bench note, c-Met (cytoplasmic domain) (Homo sapiens, UniProt P08581): Clc1ccc(Cl)c(CN2CCNc3ncc(C4=CCNCC4)cc32)c1 , pIC50 reads 5.00 to 6.00

Bench note, c-Met (cytoplasmic domain) (Homo sapiens, UniProt P08581): O=C(NCCCN1CCOCC1)c1ccc(-c2cnc3c(c2)N(Cc2ccccc2)C(=O)CN3)cc1 [Example 14, trifluoroacetic acid salt] , pIC50 reads < 4.00

Bench note, c-Met (cytoplasmic domain) (Homo sapiens, UniProt P08581): Cn1cc(-c2cnc3c(c2)N(Cc2cc(Cl)ccc2C(F)(F)F)CCN3)cn1 , pIC50 reads 5.00 to 6.00

Bench note, c-Met (cytoplasmic domain) (Homo sapiens, UniProt P08581): CC1(C)CN(Cc2cc(F)ccc2F)c2cc(I)cnc2N1 , pIC50 reads < 4.00
